# key: entry, value: pIC50
Test system: OVCAR-8 human ovarian carcinoma cells
ASSAY EXPLANATION: Cell proliferation assay (MTT), OVCAR-8
Format: cell-based
RUN PARAMETERS: 72 h exposure, MTT; mean ± SE
pIC50 (log units): -log10 of the concentration in mol/L.

Consider the worked cases shown below.
N.N.O=C([O-])C1(C(=O)[O-])CCC1.[Pt+2] [Carboplatin, carboplatin, reference compound]: 3.96
N.N.[Cl][Pt][Cl] [Cisplatin, cisplatin, reference compound]: 5.16
CC#N.CC#N.CC#N.CC#N.COc1cccc(C=Nc2cc(C)cc3c2OC2CC3c3cc(C)cc(N=Cc4cccc(OC)n4)c3O2)n1.COc1cccc(C=Nc2cc(C)cc3c2OC2CC3c3cc(C)cc(N=Cc4cccc(OC)n4)c3O2)n1.F[B-](F)(F)F.F[B-](F)(F)F.F[B-](F)(F)F.F[B-](F)(F)F.[Fe+2].[Fe+2] [Compound 11, [Fe25_2(CH3CN)4](BF4)4]: 5.85

Please provide the recorded pIC50 for CC#N.CC#N.CC#N.CC#N.Cc1cc(N=Cc2ccccn2)c2c(c1)C1CC(O2)Oc2c(N=Cc3ccccn3)cc(C)cc21.Cc1cc(N=Cc2ccccn2)c2c(c1)C1CC(O2)Oc2c(N=Cc3ccccn3)cc(C)cc21.F[B-](F)(F)F.F[B-](F)(F)F.F[B-](F)(F)F.F[B-](F)(F)F.[Fe+2].[Fe+2] [Compound 7, [Fe21_2(CH3CN)4](BF4)4] , tested on OVCAR-8 human ovarian carcinoma cells. 5.86

====

# key: entry, value: pIC50
Test system: NCI-H460 human lung carcinoma cells
ASSAY EXPLANATION: Cell proliferation assay (MTT), NCI-H460
Type: cell-based
RUN PARAMETERS: 72 h exposure, MTT; mean ± SE
pIC50 (log units): -log10 of the concentration in mol/L.

Consider the worked cases shown below.
N.N.[Cl][Pt][Cl] [Cisplatin, cisplatin, reference compound]: 6.00
CC#N.CC#N.CC#N.CC#N.Cc1cc(N=Cc2cccc(C)n2)c2c(c1)C1CC(O2)Oc2c(N=Cc3cccc(C)n3)cc(C)cc21.Cc1cc(N=Cc2cccc(C)n2)c2c(c1)C1CC(O2)Oc2c(N=Cc3cccc(C)n3)cc(C)cc21.F[B-](F)(F)F.F[B-](F)(F)F.F[B-](F)(F)F.F[B-](F)(F)F.[Fe+2].[Fe+2] [Compound 10, [Fe2(4)2(CH3CN)4](BF4)4]: 6.19
CC#N.CC#N.CC#N.CC#N.Cc1cc(N=Cc2ccccn2)c2c(c1)C1CC(O2)Oc2c(N=Cc3ccccn3)cc(C)cc21.Cc1cc(N=Cc2ccccn2)c2c(c1)C1CC(O2)Oc2c(N=Cc3ccccn3)cc(C)cc21.F[B-](F)(F)F.F[B-](F)(F)F.F[B-](F)(F)F.F[B-](F)(F)F.[Fe+2].[Fe+2] [Compound 7, [Fe21_2(CH3CN)4](BF4)4]: 6.37
CC#N.CC#N.CC#N.CC#N.Cc1cc(N=Cc2cccc(Br)n2)c2c(c1)C1CC(O2)Oc2c(N=Cc3cccc(Br)n3)cc(C)cc21.Cc1cc(N=Cc2cccc(Br)n2)c2c(c1)C1CC(O2)Oc2c(N=Cc3cccc(Br)n3)cc(C)cc21.F[B-](F)(F)F.F[B-](F)(F)F.F[B-](F)(F)F.F[B-](F)(F)F.[Fe+2].[Fe+2] [Compound 8, [Fe22_2(CH3CN)4](BF4)4]: 6.32
CC#N.CC#N.CC#N.CC#N.Cc1cc(N=Cc2ccc3ccccc3n2)c2c(c1)C1CC(O2)Oc2c(N=Cc3ccc4ccccc4n3)cc(C)cc21.Cc1cc(N=Cc2ccc3ccccc3n2)c2c(c1)C1CC(O2)Oc2c(N=Cc3ccc4ccccc4n3)cc(C)cc21.F[B-](F)(F)F.F[B-](F)(F)F.F[B-](F)(F)F.F[B-](F)(F)F.[Fe+2].[Fe+2] [Compound 12, [Fe26_2(CH3CN)4](BF4)4]: 6.31
CC#N.CC#N.CC#N.CC#N.COc1cccc(C=Nc2cc(C)cc3c2OC2CC3c3cc(C)cc(N=Cc4cccc(OC)n4)c3O2)n1.COc1cccc(C=Nc2cc(C)cc3c2OC2CC3c3cc(C)cc(N=Cc4cccc(OC)n4)c3O2)n1.F[B-](F)(F)F.F[B-](F)(F)F.F[B-](F)(F)F.F[B-](F)(F)F.[Fe+2].[Fe+2] [Compound 11, [Fe25_2(CH3CN)4](BF4)4]: 6.30
CC#N.CC#N.CC#N.CC#N.Cc1cc(N=Cc2ccc(Br)cn2)c2c(c1)C1CC(O2)Oc2c(N=Cc3ccc(Br)cn3)cc(C)cc21.Cc1cc(N=Cc2ccc(Br)cn2)c2c(c1)C1CC(O2)Oc2c(N=Cc3ccc(Br)cn3)cc(C)cc21.F[B-](F)(F)F.F[B-](F)(F)F.F[B-](F)(F)F.F[B-](F)(F)F.[Fe+2].[Fe+2] [Compound 9, [Fe23_2(CH3CN)4](BF4)4]: 6.22

Please give the measured pIC50 for this compound: N.N.O=C([O-])C1(C(=O)[O-])CCC1.[Pt+2] [Carboplatin, carboplatin, reference compound] 4.89
